- System: L1210 leukemia ip in BDF1 mice, survival T/C
- experimental_protocol: NCI In Vivo Anticancer Drug Screen. Data for tumor model L1210 Leukemia (intraperitoneal) in B6D2F1 (BDF1) mice
- test_context: endpoint: mean survival time; dose: 300.0 mg/kg/injection; schedule: Q01DX001 (ip); vehicle: saline
Toxic doses and inconclusive results are not listed. No stated cut-off is given here; in the data, active means T/C of 150% or more; inactive means T/C below 125%.
Returns: one label drawn from active, inactive

smiles_representation: O=NN(CCCl)C(=O)Nc1ccc(NC(=O)N(CCCl)N=O)cc1
assigned_category: active

stdin: Lab log entry: CC[n+]1cccc(C#N)c1 — outcome as called in the assay?
stdout: inactive

stdin: And the next one, CC1(C)C(=NC2CCCCC2)C(C)(C)C1=NC1CCCCC1 ?
stdout: inactive

stdin: Can you handle O=C(O)c1c(Cl)c(Cl)cc(Cl)c1Cl next?
stdout: inactive

stdin: Try this compound too: Clc1ccc(OCC2=NCCc3ccccc32)cc1
stdout: inactive

* * *

- Tested on: L1210 leukemia ip in BDF1 mice, survival T/C
- experimental_protocol: NCI In Vivo Anticancer Drug Screen. Data for tumor model L1210 Leukemia (intraperitoneal) in B6D2F1 (BDF1) mice
- test_context: endpoint: mean survival time; dose: 100.0 mg/kg/injection; schedule: Q01DX009 (ip); vehicle: water; higher = longer survival
- Procedure: The antitumor activity of compounds was measured in mice bearing transplantable tumors. Survival or tumor size were measured and the results are expressed as the measurement made in the treated group (T) divided by the measurement made in the vehicle treated control group (C). The tumor model used in this assay is L1210 Leukemia (intraperitoneal) in B6D2F1 (BDF1) mice
Toxic doses and inconclusive results are not listed.
Entries and their measured T/C follow.

Please review the following examples before continuing.
compound: Cn1c[n+](C)ccc1=O
system: L1210 leukemia ip in BDF1 mice, survival T/C
T/C: 87 % of control
//
compound: CC(=O)n1ncc2ccc([N+](=O)[O-])cc21
system: L1210 leukemia ip in BDF1 mice, survival T/C
T/C: 105 % of control
//
compound: CC(O)(C(N)=O)c1cc(Cl)ccc1Cl (configuration not stated)
system: L1210 leukemia ip in BDF1 mice, survival T/C
T/C: 94 % of control
//
compound: Cc1cn(C)c2nccnc12
system: L1210 leukemia ip in BDF1 mice, survival T/C
T/C: 98 % of control
//
compound: CN(C(N)=O)c1c(O)nc(N)[nH]c1=O
system: L1210 leukemia ip in BDF1 mice, survival T/C
T/C: 102 % of control

stdin: Entry O=C1C(=O)c2ccccc2C(O)=C1CC=C1CCCC1 : reported T/C = ?
stdout: 105 % of control

stdin: Query CN1CCNC(=O)CC1 next
stdout: 98 % of control

* * *

// T/C lookup, one value per entry
- Tested on: L1210 leukemia ip in BDF1 mice, survival T/C
- experimental_protocol: NCI In Vivo Anticancer Drug Screen. Data for tumor model L1210 Leukemia (intraperitoneal) in B6D2F1 (BDF1) mice
- test_context: endpoint: mean survival time; dose: 12.5 mg/kg/injection; schedule: Q04DX003 (ip); vehicle: saline; higher = longer survival
Inconclusive results and toxic doses are left out.

# annotated cases, reported T/C shown
molecule: CCCSc1ccc(N2C(N)=NC(N)=NC2(C)C)cc1
T/C: 98 % of control
--
molecule: C[N+](C)(C)c1ccc(/C=C2/CCCCC2=O)cc1
T/C: 97 % of control
--
molecule: O=c1[nH]cc(F)c(=O)[nH]1
T/C: 98 % of control

stdin: // returns reported T/C for input COc1ccc(C(=O)/C(Br)=C/C(=O)O)cc1
stdout: 94 % of control

stdin: For Cc1ncc(CO)c(C2NOCc3nccnc32)c1O (stereo unspecified) then?
stdout: 95 % of control

stdin: What about O=C1C=CC(=Nc2ccc3c(c2)C(Br)c2ccccc2-3)O1 (stereo unspecified) ?
stdout: 103 % of control
